meta.source: the supplement of paper PMC6555819

Reported PBM binding z-score values follow for various sequences
tested on: LXRb:RXRa (NR concentration 270 nM, RXRa partner concentration 90 nM); assay: PBM binding z-score (relative to random genomic background probes); higher = stronger binding; sequences stand for … in GC…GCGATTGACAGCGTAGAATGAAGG
Form: value (number only, do not type unit).

Sample answers from the record:
>>> recorded_measurement("TGAACGAGGTTATAAGATCAGGGAACGTTGCAAA")
1.08
>>> recorded_measurement("CGAACTAGGTGAAGGACAGTGAATCTCCGCACGC")
-0.714
>>> recorded_measurement("TCCGCTAGGTCAGTTGGTCAGCTAACGAGCTGCC")
0.472
>>> recorded_measurement("TCTAGTTGGTCACGGAGGTTACACACGACGGGTA")
1.12
>>> recorded_measurement("CGTTACGGGTCACTGACAGGTTATAGCATTTGGA")
3.8

**Q:** Please report the recorded PBM binding z-score for `ACTAGCAGGCAAAGTTTGGGTCACTCAAACAAAG` .
**A:** 0.807

**Q:** Please report the recorded PBM binding z-score for `ATCGAAAGGTCGAGGGGAGTATAGAGAAAGGGAA` .
**A:** 2.92

**Q:** Please report the recorded PBM binding z-score for `ATCTCTAGGTAAAGATAGTTCAGTGAATGCAAAT` .
**A:** 0.65

* * *

Reported PBM binding z-score values follow for various sequences
tested on: RARg:RXRa (NR concentration 270 nM, RXRa partner concentration 90 nM); assay: PBM binding z-score (relative to random genomic background probes); higher = stronger binding; sequences stand for … in GC…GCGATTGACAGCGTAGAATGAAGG
Form: value (number only, do not type unit).

Sample answers from the record:
>>> recorded_measurement("TCTGGTAGGTCAGTTGGTCAGCTAACGAGCTGCC")
3.09
>>> recorded_measurement("ATATGTAGGTTAAGGGACATTCAGGTTGGTTCGC")
1.28

**Q:** Please report the recorded PBM binding z-score for `CGTCAAAGTTCCAGGTAACGTAACAGAAAGCAGC` .
**A:** 0.18

**Q:** Please report the recorded PBM binding z-score for `CGAACGAGGGCATGAATTGATAGCAAATGCCGAT` .
**A:** 0.899

**Q:** Please report the recorded PBM binding z-score for `CCTATTAGGTGACCATAAGGGCAACCGAAGCTCG` .
**A:** 2.09

**Q:** Please report the recorded PBM binding z-score for `CCTTACGGGTCAATGTTATAGCACGGGTGGTACG` .
**A:** 4.03

**Q:** Please report the recorded PBM binding z-score for `CGAACTAGGTCATCCACGACAGTGAATACATTGA` .
**A:** 3.96

**Q:** Please report the recorded PBM binding z-score for `CAAACTAGGTCACGAAAGGTCGAAGTCGAATGAC` .
**A:** 6.14

**Q:** Please report the recorded PBM binding z-score for `AGAATGAGGTTATACGTAGATCAGGGAAGAAAGT` .
**A:** 1.88

**Q:** Please report the recorded PBM binding z-score for `ACTCGAAGGACAAAGGTCAGAGCTACGCCAGTGA` .
**A:** 5.85

**Q:** Please report the recorded PBM binding z-score for `CCAGACCGGTGAGAAGGTAACTCAGCCTCGATTA` .
**A:** 0.0096

**Q:** Please report the recorded PBM binding z-score for `TCTTGTAGATCGACAGGAGGTTAAGAAAGATCGA` .
**A:** 0.34
